Recorded IC50 for the following compounds
tested on: HCT-116; assay: MTT cytotoxicity assay, HCT-116; type: cell-based; settings: HCT-116 human colon carcinoma, 5 d incubation, 37 °C, 5% CO2, DMEM + 10% FBS, mean ± SD of two independent measurements

Here is how some compounds turned out for IC50.
compound | propertyLabel | recordedResult
C[C@H]1C[C@@H](C)[C@@H](O)C[C@@H](Cc2cn(CCOCCOCC(=O)O)nn2)OC(=O)[C@@H](Cc2ccc(O)c(I)c2)N(C)C(=O)CNC(=O)[C@@H](C)C1 | IC50 | > 46.2 µM
CCCCSCCC[C@@H]1C[C@H](O)[C@H](C)C[C@H](C)C[C@H](C)C(=O)NCC(=O)N(C)[C@H](Cc2ccc(O)c(I)c2)C(=O)O1 [Compound 11b] | IC50 | > 52.5 µM

Here is the next item to consider.
Input: Reported IC50 for C[C@H]1C[C@@H](C)[C@@H](O)C[C@@H](Cc2cn(CCOCCOCCO)nn2)OC(=O)[C@@H](Cc2ccc(O)c(I)c2)N(C)C(=O)CNC(=O)[C@@H](C)C1 : what is it?
Output: 8.55 µM
